tested on: HepG2 and MCF-7 cancer cell lines; assay: Cytotoxicity, MTT assay, range over both cancer cell lines; type: cell-based, human; conditions: Homo sapiens; range over HepG2 and MCF-7; read-out: IC50 range, cytotoxic activity against both cell lines
reported.metric: IC50

compound: Cc1ccc(-c2cc(-c3ccccc3)nc3sc4c(=O)[nH]c(CN5CCOCC5)nc4c23)cc1
IC50: 1.17 to 2.79 µM
--
compound: Cc1cc(C)c2c3c(sc2n1)C(=O)NC1(CCCC1)N3
IC50: 12.1 to 77.4 µM
--
compound: Cc1ccc(-c2cc(-c3ccccc3)nc3sc4c(c23)NC2(CCCC2)N=C4SCC2CO2)cc1 (stereo not shown)
IC50: 1.17 to 2.79 µM

Switching to the query record.
Problem: Recall and state the measured IC50 for Cc1cc(C)c2c3c(sc2n1)C(=O)NC1(CCCCC1)N3 .
Solution: 12.1 to 77.4 µM
